assay: in vivo
condition.set: male, Wistar, rat, plasma, po, 100 mg/kg
measured.quantity: tmax (h)
The reply should be a number in h, with the unit left off.

Entry "CN(C)C(=N)N=C(N)N" ; tmax = 1.09

###

assay: Plasma pharmacokinetics of sorafenib and sorafenib N-oxide in rats (HPLC-UV);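 note: pharmacokinetic parameters were computed with Phoenix WinNonlin 8.0 software from the plasma concentration–time curve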
condition.set: male, Wistar, rat, plasma, po, 100 mg/kg, kel, rat plasma; single oral sorafenib 100 mg/kg + atorvastatin 20 mg/kg b.w. (ISOR+AT group)
measured.quantity: k el (s⁻¹)
The reply should be a number in s⁻¹, with the unit left off.

Entry "CNC(=O)c1cc(Oc2ccc(NC(=O)Nc3ccc(Cl)c(C(F)(F)F)c3)cc2)ccn1" ; k el = 1.39e-05
